System: HT29 cells
protocol.text: cell viability (MTS) assay, HT29 colorectal cancer cells
Format: cell-based
details: Homo sapiens, HT-29, drugs 0.01 to 300 μM, OD490, read-out: IC50 to reduce HT29 cell number
readout: pIC50
Remember the convention: pIC50 equals -log10 of concentration in molar.

stdin: Find the measured pIC50 of `O=c1[nH]cc(F)c(=O)[nH]1` and report it.
stdout: 5.12

Reference for the values: patent US10421770B2
